Could you please report measured Mean normalized OD for the items listed next?
Molecular target: T1, monomeric SARS-CoV-2 receptor binding domain (RBD-H6) (SARS-CoV-2, UniProt P0DTC2 319-541)
T1 construct: Made in HEK293-6E cells; also called RBD Spike; monomeric RBD
Assay: ELISA screen
Numbers only, in OD.

Answered examples (6):
Reg3b CRD-mouse IgG2a-Fc fusion protein (Fc fusion) YGSYCYALFQIPQTWFDAELACQKRPGGHLVSVLNSAEASFLSSMVKRTGNSYQYTWIGLHDPTLGAEPNGGGWEWSNNDVMNYFNWERNPSTALDRAFCGSLSRASGFLKWRDMTCEVKLPYVCKGGGSGGGSGGGS    0.004
Asgr2 CRD-mouse IgG2a-Fc fusion protein (Fc fusion) CCPVNWVEFGGSCYWFSRDGLTWAEADQYCQLENAHLLVINSREEQDFVVKHRSQFHIWIGLTDRDGSWKWVDGTDYRSNYRNWAFTQPDNWQGHEQGGGEDCAEILSDGHWNDNFCQQVNRWVCEKGGGSGGGSGGGS    0.013
Chodl CRD-mouse IgG2a-Fc fusion protein (Fc fusion) VKHPCYKMAYFHELSSRVSFQEARLACESEGGVLLSLENEAEQKLIESMLQNLTKPGTGISDGDFWIGLLRSGDGQTSGACPDLYQWSDGSSSQFRNWYTDEPSCGSEKCVVMYHQPTANPGLGGPYLYQWNDDRCNMKHNYICKGGGSGGGSGGGS    0.001
Cd209b CRD-mouse IgG2a-Fc fusion protein (Fc fusion) FLLGNCYFFSKSQRNWNDAVTACKEVKAQLVIINSDEEQTFLQQTSKAKGPTWMGLSDLKKEATWLWVDGSTLSSRFQKYWNRGEPNNIGEEDCVEFAGDGWNDSKCELKKFWICKGGGSGGGSGGGS    0.113
Sele CRD-mouse IgG2a-Fc fusion protein (Fc fusion) WYYNASSELMTYDEASAYCQRDYTHLVAIQNKEEINYLNSNLKHSPSYYWIGIRKVNNVWIWVGTGKPLTEEAQNWAPGEPNNKQRNEDCVEIYIQRTKDSGMWNDERCNKKKLALCYGGGSGGGSGGGS    0
Lgals8_2 CRD-mouse IgG2a-Fc fusion protein (Fc fusion) FEARLNASMGPGRTVVIKGEVNTNARSFNVDLVAGKTRDIALHLNPRLNVKAFVRNSFLQDAWGEEERNITCFPFSSGMYFEMIIYCDVREFKVAINGVHSLEYKHRFKDLSSIDTLSVDGDIRLLDVRSWGGGSGGGSGGGS    0.012

Hey, can you go through the list below and give me Mean normalized OD for every item?
1. Pla2r1_4 CRD-mouse IgG2a-Fc fusion protein (Fc fusion) GLASCFKVFHSEKVLMKRSWREAEAFCEEFGAHLASFAHIEEENFVNELLHSKFNWTQERQFWIGFNRRNPLNAGSWAWSDGSPVVSSFLDNAYFEEDAKNCAVYKANKTLLPSNCASKHEWICRGGGSGGGSGGGS
2. Ly75_9 CRD-mouse IgG2a-Fc fusion protein (Fc fusion) YKDGVYSVIQKKVTWYEALNACSQSGGELASVHNPNGKLFLEDIVNRDGFPLWVGLSSHDGSESSFEWSDGRAFDYVPWQSLQSPGDCVVLYPKGIWRREKCLSVKDGAICYKGGGSGGGSGGGS
3. Cd22 CRD-mouse IgG2a-Fc fusion protein (Fc fusion) SANDWTVDHPQTLFAWEGACIRIPCKYKTPLPKARLDNILLFQNYEFDKATKKFTGTVLYNATKTEKDPESELYLSKQGRVTFLGNRIDNCTLKIHPIRANDSGNLGLRMTAGTERWMEPIHLNVSEGGGSGGGSGGGS
4. Selp CRD-mouse IgG2a-Fc fusion protein (Fc fusion) WTYNYSTKAYSWNNSRVFCRRHFTDLVAIQNKNEIAHLNDVIPFFNSYYWIGIRKINNKWTWVGTNKTLTEEAENWADNEPNNKKNNQDCVEIYIKSNSAPGKWNDEPCFKRKRALCGGGSGGGSGGGS
5. Pla2r1_2 CRD-mouse IgG2a-Fc fusion protein (Fc fusion) FNRKCYKLKKDRKSWLGALHSCQSNDSVLMDVASLAEVEFLVSLLRDENASETWIGLSSNKIPVSFEWSSGSSVIFTNWYPLEPRILPNRRQLCVSAEESDGRWKVKDCKERLFYICKGGGSGGGSGGGS
6. Lgals8_1 CRD-mouse IgG2a-Fc fusion protein (Fc fusion) YVGTITEQLKPGSLIVIRGHVPKDSERFQVDFQLGNSLKPRADVAFHFNPRFKRSSCIVCNTLTQEKWGWEEITYDMPFRKEKSFEIVFMVLKNKFQVAVNGRHVLLYAHRISPEQIDTVGIYGKVNIHSIGFRGGGSGGGSGGGS

1. 0.053
2. 0.004
3. 0.004
4. 0.007
5. 0.011
6. 0.031

Hello, I would appreciate it if you could give Mean normalized OD for each entry below.
1. Mrc2_2 CRD-mouse IgG2a-Fc fusion protein (Fc fusion) FQGHCYRLQAEKRSWQESKRACLRGGGDLLSIHSMAELEFITKQIKQEVEELWIGLNDLKLQMNFEWSDGSLVSFTHWHPFEPNNFRDSLEDCVTIWGPEGRWNDSPCNQSLPSICKGGGSGGGSGGGS
2. Siglec10 CRD-mouse IgG2a-Fc fusion protein (Fc fusion) VQRIVKAQEGLCIFVPCSFSSPEGKWLNRSPLYGYWFKGIRKPSLSFPVATNNKDKVLEWEARGRFQLLGDISKKNCSLLIKDVQWGDSTNYFFRMERGFERFSFKEEFRLQVGGGSGGGSGGGS

[0.038, 0.015]
